Assignment: determine reported EC50 of PTH(1-34), cAMP assay, with 267 nM IgG for the given binders.
# target.under.test: T1, human PTH1R overexpressed on CHO cells (human, UniProt Q03431 27-593)
# T1 sequence (looked up): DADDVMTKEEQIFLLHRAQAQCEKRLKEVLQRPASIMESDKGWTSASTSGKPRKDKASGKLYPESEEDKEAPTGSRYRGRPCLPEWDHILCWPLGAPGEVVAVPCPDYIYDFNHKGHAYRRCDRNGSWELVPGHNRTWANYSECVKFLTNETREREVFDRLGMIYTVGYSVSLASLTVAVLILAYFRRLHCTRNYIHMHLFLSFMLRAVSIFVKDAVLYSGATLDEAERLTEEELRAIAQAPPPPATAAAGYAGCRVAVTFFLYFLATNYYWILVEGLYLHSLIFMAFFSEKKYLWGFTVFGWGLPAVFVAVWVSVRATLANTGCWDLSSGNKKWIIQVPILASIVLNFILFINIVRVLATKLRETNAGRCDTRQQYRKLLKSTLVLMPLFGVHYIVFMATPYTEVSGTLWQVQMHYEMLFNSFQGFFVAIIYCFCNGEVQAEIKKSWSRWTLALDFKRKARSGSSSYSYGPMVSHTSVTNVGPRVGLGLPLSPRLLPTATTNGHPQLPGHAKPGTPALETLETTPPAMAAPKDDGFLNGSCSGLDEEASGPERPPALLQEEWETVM
# experiment.description: cell-based or functional assay
The reply should contain only the number, in nM.

**Query** Look up and state reported EC50 of PTH(1-34), cAMP assay, with 267 nM IgG for XPA.85.337 (antibody, V domains shown, Light-chain-shuffled variant of XPA.85.017) VH: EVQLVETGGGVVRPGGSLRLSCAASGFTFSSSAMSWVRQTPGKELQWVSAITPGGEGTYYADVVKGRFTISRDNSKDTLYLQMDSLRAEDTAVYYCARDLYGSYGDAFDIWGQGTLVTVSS VL: SYVLTQPPSVSVAPGQTATITCSGDDFGDKYVSWYQQKPGQSPLLVIFQDNERPSGIPERFSGSNSGNTATLTISGTQAMDEADYYCQAWDSNWVFGGGTKVTVL
**Result** 0.107

**Query** Using the record for XPA.85.335 (antibody, V domains shown, Light-chain-shuffled variant of XPA.85.017) VH: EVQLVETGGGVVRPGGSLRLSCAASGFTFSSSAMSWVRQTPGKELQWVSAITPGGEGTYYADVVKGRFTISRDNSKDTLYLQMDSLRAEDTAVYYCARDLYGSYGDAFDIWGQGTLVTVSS VL: QSVLTQPPSVSAAPGQRVTISCSGNTSNIGNNFVSWYQQLPGTAPKLLIYDDNKRPSGIPDRFSGSKSGTSATLGISGLQTGDEADYYCGTWDNSLNPPWVFGGGTQLTVL , state its measured EC50 of PTH(1-34), cAMP assay, with 267 nM IgG.
**Result** 0.0429
